Origin of values: patent US20260265798A1

Biological target: NT-11 PrnC (Pseudomonas fluorescens)
Construct: made in house; host or cells: T7 Express E. coli (NEB), pET-28a(+)
Sequence (P95482 with tags, fused parts or gaps): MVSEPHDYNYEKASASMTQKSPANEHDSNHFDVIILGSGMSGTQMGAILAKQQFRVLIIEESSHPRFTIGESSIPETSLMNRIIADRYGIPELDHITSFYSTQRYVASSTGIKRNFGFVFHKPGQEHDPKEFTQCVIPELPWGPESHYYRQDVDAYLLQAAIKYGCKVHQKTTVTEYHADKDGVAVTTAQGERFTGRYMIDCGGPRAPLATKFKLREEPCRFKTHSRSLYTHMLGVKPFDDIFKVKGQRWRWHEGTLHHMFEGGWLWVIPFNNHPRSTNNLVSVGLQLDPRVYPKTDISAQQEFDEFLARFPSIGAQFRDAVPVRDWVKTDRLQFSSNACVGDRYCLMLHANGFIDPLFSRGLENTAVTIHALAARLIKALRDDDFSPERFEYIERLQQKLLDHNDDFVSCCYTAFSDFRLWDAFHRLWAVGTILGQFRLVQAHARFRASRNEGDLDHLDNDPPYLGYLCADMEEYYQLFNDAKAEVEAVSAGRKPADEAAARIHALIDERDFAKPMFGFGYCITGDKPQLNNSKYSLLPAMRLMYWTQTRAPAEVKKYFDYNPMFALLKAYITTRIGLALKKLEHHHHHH
Test: NT-11 PrnC-catalyzed halogenation, analytical scale biotransformation (in-vitro regioselective chlorination, substrate scope)
Type: biochemical
Details: in-vitro chlorination by PrnC under optimized conditions; substrate 0.5 mM, MgCl2 10 mM, overnight 30° C.; HPLC
READOUT TYPE: conversion yield (%)
Give your result in % as a bare value.

*Q* So what conversion yield did COc1ccccc1-c1c[nH]cc1Cl get with NT-11 PrnC (Pseudomonas fluorescens)?
*A* 41

*Q* Please answer likewise for Nc1ccccc1-c1cc(Cl)c[nH]1
*A* 68

*Q* Please answer likewise for Clc1c[nH]cc1-c1cccnc1
*A* 73

*Q* Field entry: Nc1c(Cl)cccc1-c1[nH]ncc1Cl
*A* 14

*Q* Entry Cc1ccccc1-c1c[nH]cc1Cl please
*A* 22

*Q* Next molecule up: CC(=O)Nc1ccccc1-c1c[nH]cc1Cl
*A* 18

*Q* What about Nc1c(Cl)cccc1-c1c[nH]cc1Cl ?
*A* 55

*Q* Then what about the molecule Clc1c[nH]cc1-c1ccccc1 ?
*A* 77

*Q* Now the same for Oc1ccccc1-c1c[nH]cc1Cl
*A* 21

*Q* Further, for Clc1c[nH]cc1-c1cnc2ccccc2c1 ?
*A* 63
